test target: hormone sensitive lipase, HSL (Rattus norvegicus, UniProt P15304)
Construct: Isolated rat fat cells are obtained from epididymal adipose tissue; from tissue; host or cells: fat cells from epididymal adipose tissue of male Wistar rats
test description: HSL inhibition assay
Type: biochemical
test settings: partially purified HSL from rat fat cells; [3H]trioleoylglycerol substrate; 37° C. for 30 min
The entries below come with measured IC50 values attached.
Reply numerically in µM, unit not repeated.

Completed entries (count: 5):
# molecule, IC50 [µM]
records = [
    ("Cc1ccccc1N1CCN(C(=O)n2nnc3ncccc32)CC1 [Example 25]", 0.215),
    ("CC1CCN(C(=O)n2nnc3nc(Cl)ccc32)CC1 [Example 1]", 0.5),
    ("COC(=O)c1ccc(C2CCN(C(=O)n3nnc4ncccc43)CC2)cc1 [Example 23]", 0.45),
    ("O=C(C1CCC2(CC1)CCN(c1ccccc1)C2=O)n1nnc2ncccc21 (centres unmarked) [Example 35]", 0.78),
    ("Cc1cccc(C)c1N1CCN(C(=O)n2nnc3ncccc32)CC1 [Example 14]", 0.607),
]

QUERY: So what's the measured IC50 for this one? CC1CCN(C(=O)n2nnc3cccnc32)CC1 [Example 62]
RESULT: 0.16

QUERY: So what's the measured IC50 for this one? O=C(N1CCC(c2cccc(C(F)(F)F)c2)CC1)n1nnc2ncccc21 [Example 53]
RESULT: 0.826

QUERY: So what's the measured IC50 for this one? O=C(N1CCN(c2ccc(-c3ccccc3)cc2)CC1)n1nnc2ncccc21 [Example 26]
RESULT: 0.198

QUERY: So what's the measured IC50 for this one? CC1CCCN(C(=O)n2nnc3cccnc32)C1 (centres unmarked) [Example 63]
RESULT: 0.965

QUERY: So what's the measured IC50 for this one? O=C(N1CCC(c2ccc3ccccc3c2)CC1)n1nnc2ncccc21 [Example 33]
RESULT: 0.112

QUERY: So what's the measured IC50 for this one? CC1CCN(C(=O)n2nnc3ncc(Cl)cc32)CC1 [Example 5]
RESULT: 0.3

----------
The entries below come with measured IC50 values attached.
test target: hormone sensitive lipase, HSL (Rattus norvegicus, UniProt P15304)
Construct: Isolated rat fat cells are obtained from epididymal adipose tissue; from tissue; host or cells: fat cells from epididymal adipose tissue of male Wistar rats
Sequence (P15304 301-1068 limits assumed): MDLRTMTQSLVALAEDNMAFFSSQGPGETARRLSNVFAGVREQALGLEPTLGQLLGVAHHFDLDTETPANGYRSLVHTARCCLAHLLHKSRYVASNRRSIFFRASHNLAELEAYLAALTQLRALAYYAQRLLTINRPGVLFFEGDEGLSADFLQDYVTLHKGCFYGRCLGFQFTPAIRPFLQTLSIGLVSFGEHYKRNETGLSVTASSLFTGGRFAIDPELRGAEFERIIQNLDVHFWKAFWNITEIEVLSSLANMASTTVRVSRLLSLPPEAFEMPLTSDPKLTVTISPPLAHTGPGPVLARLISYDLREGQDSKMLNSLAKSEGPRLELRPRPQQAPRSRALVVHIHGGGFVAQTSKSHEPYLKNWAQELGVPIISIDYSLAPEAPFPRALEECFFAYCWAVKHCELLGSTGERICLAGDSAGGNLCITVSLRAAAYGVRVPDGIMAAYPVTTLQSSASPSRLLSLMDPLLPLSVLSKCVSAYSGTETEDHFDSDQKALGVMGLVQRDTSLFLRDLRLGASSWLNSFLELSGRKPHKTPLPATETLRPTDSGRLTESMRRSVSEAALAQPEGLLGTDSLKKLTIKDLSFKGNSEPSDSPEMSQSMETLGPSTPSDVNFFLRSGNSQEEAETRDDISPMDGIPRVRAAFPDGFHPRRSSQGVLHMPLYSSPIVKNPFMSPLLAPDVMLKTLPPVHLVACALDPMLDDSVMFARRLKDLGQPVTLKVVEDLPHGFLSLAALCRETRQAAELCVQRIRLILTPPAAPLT
test description: HSL inhibition assay
Format: biochemical
test settings: partially purified HSL from rat fat cells; [3H]trioleoylglycerol substrate; 37° C. for 30 min
Reply numerically in µM, unit not repeated.

Completed entries (count: 2):
# compound, test target, observed property, meas value
measured = [
    ("CC1CC(C)CN(C(=O)n2nnc3ncccc32)C1 (stereo not drawn)", "hormone sensitive lipase, HSL (Rattus norvegicus, UniProt P15304)", "IC50", 0.585),
    ("CC1(C)CCCN(C(=O)n2nnc3ncccc32)C1", "hormone sensitive lipase, HSL (Rattus norvegicus, UniProt P15304)", "IC50", 0.367),
]

QUERY: So what's the measured IC50 for this one? CCOc1ccc(N2CCN(C(=O)n3nnc4ncccc43)CC2)cc1
RESULT: 0.576

QUERY: So what's the measured IC50 for this one? O=C(N1CCN(c2ccc(OCc3ccccc3)cc2)CC1)n1nnc2ncccc21
RESULT: 0.062

QUERY: So what's the measured IC50 for this one? CCCCCCCCN1CCN(C(=O)n2nnc3ncccc32)CC1
RESULT: 0.237

QUERY: So what's the measured IC50 for this one? O=C(N1CCC(CCc2ccccc2)CC1)n1nnc2ncccc21
RESULT: 0.662

QUERY: So what's the measured IC50 for this one? O=C(N1CCc2ccccc2C1)n1nnc2ccc(Cl)nc21
RESULT: 0.15

QUERY: So what's the measured IC50 for this one? O=C(N1CCc2ccccc2C1)n1nnc2cccnc21
RESULT: 0.03

QUERY: So what's the measured IC50 for this one? O=C(N1CCc2ccccc2C1)n1nnc2ncccc21
RESULT: 0.07
